Each recorded value in this set is attributed to patent US20250011363A1.

Target: acetylcholine receptor
Experiment: SPR, AchR immobilized on chip, peptide at 10 uM
Reported Binding affinity is given for each of the following binders.
# do not omit the unit; it follows the number

A selection of reference data follows.
[[record]]
binder = "RQFQRK [6mer-2-12]"
recorded_value = "147 RU"

[[record]]
binder = "KQLCKR [6mer-2-41]"
recorded_value = "142 RU"

[[record]]
binder = "RLVTKR [6mer-2-62]"
recorded_value = "147 RU"

[[record]]
binder = "KSLQKK [6mer-2-8]"
recorded_value = "135 RU"


input: Which Binding affinity value belongs to RWVRKK [6mer-2-23] ?
output: 148 RU
